Source of measurements: patent US9688764B2

Tested on: HEK293/hPRLR/STAT5-Luc cells (human PRLR)
experiment.notes: STAT5-Luc luciferase reporter assay, blocking of PRL-mediated receptor activation
Type: cell-based
test.settings: 100 nM antibody, 5 nM PRL
endpoint.name: Percent Blocking at 100 nM Antibody (%)
Lab book: enter the figure in %, no units written.

1) H1H6790P: anti-PRLR antibody, human IgG1 Fc; HCVR/LCVR SEQ ID NOs 114/122 (antibody, V domains shown, human IgG1 Fc) VH: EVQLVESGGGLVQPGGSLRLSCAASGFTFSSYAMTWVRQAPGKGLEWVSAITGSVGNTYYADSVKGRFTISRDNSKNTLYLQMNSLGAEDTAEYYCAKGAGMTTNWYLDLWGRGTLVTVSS VL: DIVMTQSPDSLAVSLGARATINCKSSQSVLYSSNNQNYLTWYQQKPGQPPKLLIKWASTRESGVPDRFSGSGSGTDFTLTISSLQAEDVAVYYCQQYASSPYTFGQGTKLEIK: 100
2) H1H6976N: human IgG1 Fc form of H2M6976N; anti-PRLR; HCVR/LCVR SEQ ID NOs 386/394 (antibody, V domains shown, human IgG1 Fc) VH: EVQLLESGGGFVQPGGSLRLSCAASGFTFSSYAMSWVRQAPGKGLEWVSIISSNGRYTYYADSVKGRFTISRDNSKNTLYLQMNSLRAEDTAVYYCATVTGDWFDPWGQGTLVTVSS VL: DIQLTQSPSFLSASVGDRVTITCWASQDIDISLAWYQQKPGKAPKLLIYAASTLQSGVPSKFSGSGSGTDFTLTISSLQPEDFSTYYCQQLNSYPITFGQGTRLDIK: 23

*Q* Reported Percent Blocking at 100 nM Antibody, molecule H1H6785P: anti-PRLR antibody, human IgG1 Fc; HCVR/LCVR SEQ ID NOs 98/106 (antibody, V domains shown, human IgG1 Fc) VH: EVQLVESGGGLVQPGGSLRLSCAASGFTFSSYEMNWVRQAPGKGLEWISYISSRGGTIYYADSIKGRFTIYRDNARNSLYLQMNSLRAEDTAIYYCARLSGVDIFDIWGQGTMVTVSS VL: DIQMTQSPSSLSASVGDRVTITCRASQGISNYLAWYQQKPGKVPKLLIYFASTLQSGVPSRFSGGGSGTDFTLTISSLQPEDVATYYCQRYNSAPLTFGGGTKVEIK : ____
*A* 100

*Q* Now give it for H1H6765P: anti-PRLR antibody, human IgG1 Fc; HCVR/LCVR SEQ ID NOs 18/26 (antibody, V domains shown, human IgG1 Fc) VH: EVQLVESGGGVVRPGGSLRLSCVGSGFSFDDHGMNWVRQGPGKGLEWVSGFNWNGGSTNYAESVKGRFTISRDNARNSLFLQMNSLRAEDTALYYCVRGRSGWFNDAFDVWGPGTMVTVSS VL: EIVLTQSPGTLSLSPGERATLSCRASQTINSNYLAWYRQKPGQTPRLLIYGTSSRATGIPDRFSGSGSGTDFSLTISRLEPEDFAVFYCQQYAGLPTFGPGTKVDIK too.
*A* 100

*Q* Now give it for H1H6958N2: human IgG1 Fc form of H2M6958N2; anti-PRLR, receptor blocking; HCVR/LCVR SEQ ID NOs 290/298 (antibody, V domains shown, human IgG1 Fc) VH: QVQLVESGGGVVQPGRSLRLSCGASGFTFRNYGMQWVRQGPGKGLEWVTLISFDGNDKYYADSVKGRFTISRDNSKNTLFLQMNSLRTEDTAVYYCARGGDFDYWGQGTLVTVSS VL: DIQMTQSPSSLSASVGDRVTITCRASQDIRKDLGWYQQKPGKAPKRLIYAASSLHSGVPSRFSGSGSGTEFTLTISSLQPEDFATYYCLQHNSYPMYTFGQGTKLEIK too.
*A* 100

*Q* Now give it for H1H6774P: anti-PRLR antibody, human IgG1 Fc; HCVR/LCVR SEQ ID NOs 34/42 (antibody, V domains shown, human IgG1 Fc) VH: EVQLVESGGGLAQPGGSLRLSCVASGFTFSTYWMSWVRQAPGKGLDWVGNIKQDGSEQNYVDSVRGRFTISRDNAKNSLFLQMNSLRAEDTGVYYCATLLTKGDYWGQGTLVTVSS VL: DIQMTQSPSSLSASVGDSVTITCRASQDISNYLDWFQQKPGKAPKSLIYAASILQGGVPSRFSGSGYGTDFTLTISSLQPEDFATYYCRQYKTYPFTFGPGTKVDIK too.
*A* 0

*Q* Now give it for H1H6781P: anti-PRLR antibody, human IgG1 Fc; HCVR/LCVR SEQ ID NOs 50/58 (antibody, V domains shown, human IgG1 Fc) VH: EVQLVESGGDLVQPGESLRLSCTASGFTFNSYEMNWVRQAPGKGLEWVSYISSSGGTKYYVDSVKGRFTISRDNAKKSLYLQMNSLRADDTALYYCARLNGVDVFDIWGQGTMVTVSS VL: DIQMTQSPSSLSASVGDRVTITCRASQDIFNYLAWFQQKPGKVPELLISAASTLQSGVPSRFSGSGSGTYFTLTISSLQPEDIATYYCQRYNSAPLTFGGGTKVEIK too.
*A* 100
